Data origin, for the record: ChEMBL document CHEMBL5360577

Target: Microtubule-associated protein tau (Homo sapiens, UniProt P10636)
Sequence (P10636 whole entry): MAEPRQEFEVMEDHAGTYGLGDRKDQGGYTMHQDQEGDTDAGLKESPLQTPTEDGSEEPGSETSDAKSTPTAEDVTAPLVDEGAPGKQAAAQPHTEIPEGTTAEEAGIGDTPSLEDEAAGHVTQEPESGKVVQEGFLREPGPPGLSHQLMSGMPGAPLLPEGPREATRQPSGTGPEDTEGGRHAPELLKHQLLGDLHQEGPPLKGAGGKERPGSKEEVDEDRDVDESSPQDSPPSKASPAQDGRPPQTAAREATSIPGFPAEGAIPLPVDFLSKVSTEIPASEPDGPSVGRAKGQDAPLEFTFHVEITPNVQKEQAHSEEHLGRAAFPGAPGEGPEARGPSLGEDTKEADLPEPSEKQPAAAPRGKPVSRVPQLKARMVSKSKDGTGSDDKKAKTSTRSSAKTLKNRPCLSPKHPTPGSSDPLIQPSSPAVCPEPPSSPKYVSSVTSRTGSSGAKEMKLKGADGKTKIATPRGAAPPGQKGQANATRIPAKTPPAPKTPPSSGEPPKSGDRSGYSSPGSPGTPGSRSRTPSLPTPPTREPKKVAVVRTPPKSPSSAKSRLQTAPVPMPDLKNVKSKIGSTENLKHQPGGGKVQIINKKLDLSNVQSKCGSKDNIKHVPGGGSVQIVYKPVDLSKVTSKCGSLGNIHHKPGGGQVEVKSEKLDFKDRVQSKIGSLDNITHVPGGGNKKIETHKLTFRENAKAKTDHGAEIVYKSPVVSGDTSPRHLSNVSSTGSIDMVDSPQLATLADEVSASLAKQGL
Test: Inhibition of cellular tau (unknown origin) aggregation incubated for 2 hrs by FRET assay
The compounds listed here are annotated with their pEC50.
Just so you know, pEC50 here is -log10 of the concentration in molar units; reply with that number alone.

Provide one value: measured pEC50 of Cc1ccc(C(c2ccccc2O)N2CCN(c3cnccn3)CC2)cc1 (configuration not stated) 5.57

# return recorded pEC50 for input COc1cccc(C(c2ccc(F)cc2)N2CCN(c3cnccn3)CC2)c1O (configuration not stated) 5.66

---

Biological target: Acetylcholinesterase (Homo sapiens)
Sequence (P22303 whole entry): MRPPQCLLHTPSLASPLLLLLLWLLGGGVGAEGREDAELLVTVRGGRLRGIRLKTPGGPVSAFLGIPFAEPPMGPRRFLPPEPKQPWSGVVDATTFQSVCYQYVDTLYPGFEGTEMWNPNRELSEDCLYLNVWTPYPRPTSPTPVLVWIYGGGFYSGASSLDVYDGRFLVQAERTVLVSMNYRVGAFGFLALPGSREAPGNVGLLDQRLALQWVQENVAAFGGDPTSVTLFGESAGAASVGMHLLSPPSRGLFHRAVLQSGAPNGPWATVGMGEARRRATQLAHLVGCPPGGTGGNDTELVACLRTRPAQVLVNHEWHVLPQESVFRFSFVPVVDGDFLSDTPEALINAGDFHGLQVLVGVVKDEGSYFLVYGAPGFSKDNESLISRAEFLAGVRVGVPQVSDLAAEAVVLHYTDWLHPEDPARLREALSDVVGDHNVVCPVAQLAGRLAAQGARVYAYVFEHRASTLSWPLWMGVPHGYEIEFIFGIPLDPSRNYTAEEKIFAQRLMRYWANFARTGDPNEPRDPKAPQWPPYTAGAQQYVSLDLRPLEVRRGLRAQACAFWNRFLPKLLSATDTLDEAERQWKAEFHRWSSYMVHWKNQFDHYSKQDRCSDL
Assay: Inhibition of human AChE by Ellman's method
Measured parameter: pIC50
pIC50 field: float, defined as -log10 of concentration (mol/L).

Quick one: give measured pIC50 for Cc1cc(C)c(C(=O)/C=C/c2nc(C)c(C)nc2C)cc1C 5.62

---

Target: Acetylcholinesterase (Homo sapiens)
Test: Inhibition of human AChE using acetylthiocholine as substrate by Ellman's method
Collected pIC50 values appear next to each entry.
Scale explanation: pIC50 corresponds to minus log10 of a concentration expressed in moles per litre.

{"Compound": "COc1cccc(C(c2ccc(F)cc2)N2CCN(c3cnccn3)CC2)c1O (configuration not stated)", "pIC50": 6.15}

// switching to the query compound
Complete the entry with pIC50 for Cc1ccc(C(c2ccccc2O)N2CCN(c3cnccn3)CC2)cc1 (configuration not stated) 5.96
